The origin of these recorded values is patent US11447466B2.

Biological target: UniProtKB Q9NR97
Sequence (Q9NR97 27-1041): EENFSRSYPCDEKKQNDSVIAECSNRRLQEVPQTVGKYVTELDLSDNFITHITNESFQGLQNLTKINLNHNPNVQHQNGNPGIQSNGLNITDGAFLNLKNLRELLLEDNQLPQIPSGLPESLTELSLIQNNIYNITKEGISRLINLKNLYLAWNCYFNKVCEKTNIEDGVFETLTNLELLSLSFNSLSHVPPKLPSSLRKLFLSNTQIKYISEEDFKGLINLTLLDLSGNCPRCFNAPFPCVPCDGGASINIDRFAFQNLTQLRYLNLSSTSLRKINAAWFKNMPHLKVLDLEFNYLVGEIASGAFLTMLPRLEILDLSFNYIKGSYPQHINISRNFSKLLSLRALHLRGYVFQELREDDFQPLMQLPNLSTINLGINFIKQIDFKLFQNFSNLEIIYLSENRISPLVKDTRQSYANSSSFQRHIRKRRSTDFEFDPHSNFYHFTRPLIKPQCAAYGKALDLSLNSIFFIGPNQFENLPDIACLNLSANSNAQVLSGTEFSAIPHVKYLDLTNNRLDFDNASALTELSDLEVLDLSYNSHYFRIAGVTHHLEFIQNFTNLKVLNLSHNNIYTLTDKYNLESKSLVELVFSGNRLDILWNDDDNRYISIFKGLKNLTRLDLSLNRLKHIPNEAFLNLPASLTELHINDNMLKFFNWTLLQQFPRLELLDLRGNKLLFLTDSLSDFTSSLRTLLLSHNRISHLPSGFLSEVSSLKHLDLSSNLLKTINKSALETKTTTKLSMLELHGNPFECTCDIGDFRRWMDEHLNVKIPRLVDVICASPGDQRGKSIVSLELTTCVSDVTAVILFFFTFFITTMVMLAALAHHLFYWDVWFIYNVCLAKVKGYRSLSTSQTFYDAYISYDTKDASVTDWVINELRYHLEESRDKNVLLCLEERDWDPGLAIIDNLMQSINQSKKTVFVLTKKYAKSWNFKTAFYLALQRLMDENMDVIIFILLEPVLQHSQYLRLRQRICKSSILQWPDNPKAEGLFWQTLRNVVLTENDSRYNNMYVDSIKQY
Test: TLR8 inhibition reporter assay (HEK-Blue SEAP reporter, R848 stimulation)
Settings: HEK-Blue cells overexpressing human TLR8, SEAP reporter, R848 15.9 μM, 22 hour incubation
Property Label: IC50 (nM)

Cc1c(-c2[nH]c3ccc(C4CCNCC4)cc3c2C(C)C)cn(C)c(=O)c1C#N [Example 24] : 10.7

(I) COCCN1CCC(c2ccc3[nH]c(-c4cn(C)c(=O)c(Cl)c4C)c(C(C)C)c3c2)CC1 [Example 95]
(II) CNC(=O)CN1CCC(c2ccc3[nH]c(-c4cn(C)c(=O)c(Cl)c4C)c(C(C)C)c3c2)CC1 [Example 153]
## Input // pick min by IC50: I , II # respond with the chosen item's label
## Output I
(I: 7.8 nM, II: 12.6 nM)
